assayed-target: T1, murine CD19 protein (murine, UniProt P25918 17-287, limits assumed)
T1 construct: bought protein; also called commercial murine CD19
T1 sequence (looked up): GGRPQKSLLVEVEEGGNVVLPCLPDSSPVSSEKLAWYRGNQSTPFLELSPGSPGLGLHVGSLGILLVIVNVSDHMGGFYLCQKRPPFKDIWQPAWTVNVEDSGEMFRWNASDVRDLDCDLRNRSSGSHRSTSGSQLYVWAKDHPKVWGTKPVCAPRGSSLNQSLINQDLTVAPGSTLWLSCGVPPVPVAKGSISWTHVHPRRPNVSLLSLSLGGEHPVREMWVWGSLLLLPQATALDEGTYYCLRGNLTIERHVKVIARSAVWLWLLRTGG
protocol-description: ELISA, coated murine CD19
Experimental: Human CD19-his protein (purchased from ACROBiosystems, catalog number: CD9-H52H2) was diluted with PBS to a final concentration of 4 μg/mL, and then added to a 96-well ELISA plate at 100 μl/well. […] The OD450 nm values were read by an ELISA microplate reader (Multimode Plate Reader, EnSight, purchased from Perkin Elmer). […]

# binder, binding result
rows = [
    ("F4.58.6 (antibody, human IgG1, V domains shown, human-murine chimeric antibody, human IgG1) VH: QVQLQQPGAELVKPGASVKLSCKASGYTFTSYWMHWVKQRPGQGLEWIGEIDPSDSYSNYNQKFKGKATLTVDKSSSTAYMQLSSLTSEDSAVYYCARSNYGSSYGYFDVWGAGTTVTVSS VL: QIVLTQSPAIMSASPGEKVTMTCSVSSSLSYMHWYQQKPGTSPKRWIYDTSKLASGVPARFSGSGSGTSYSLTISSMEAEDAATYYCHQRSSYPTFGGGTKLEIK", "no binding"),
    ("F3.40.14 (antibody, human IgG1, V domains shown, human-murine chimeric antibody, human IgG1) VH: QAQLQQSGPELVKPGASVKISCKASGYAFSGSWMNWVQQRPGKGLEWIGRIYPGDGDTYYSGKFKDKAILTADTSSSTAYMQLSSLTSEDSAVYFCAQLRSRYVMDYWGQGASVTVSS VL: DIVLTQSPASLAVSLGQRATISCRASESVSIHGTHLMHWYQQKPGQPPRLLIYAASNLESGVPARFSGSGSETDFTLNIHPVEEEDAATYFCQQGIDDPYTFGGGTKLEIK", "no binding"),
    ("F2.15.26 (antibody, human IgG1, V domains shown, human-murine chimeric antibody, human IgG1) VH: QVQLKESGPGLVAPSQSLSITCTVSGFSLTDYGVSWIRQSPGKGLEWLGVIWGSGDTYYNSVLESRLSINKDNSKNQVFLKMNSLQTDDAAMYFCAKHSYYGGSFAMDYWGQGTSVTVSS VL: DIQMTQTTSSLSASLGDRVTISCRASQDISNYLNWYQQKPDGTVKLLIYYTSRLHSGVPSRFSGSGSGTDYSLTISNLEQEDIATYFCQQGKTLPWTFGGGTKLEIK", "no binding"),
]
